Tested on: Mycobacterium intracellulare
Assay: microbe, parasite or virus in culture
Assay type: cell-based
Conditions: Experiment 2; three replicate columns
*1 amine or outer side, *2 acyl side, *3 side chain or, on linkers, in order; H or OH if unused. Where a SMILES comes first, the peptide text is derived from it. [ ]: non-standard residue; d: D form. X1 = C#CCn1cc(C[C@H](N[*:1])C(=O)[*:2])c2ccccc21; NMeLeu(5-OH,4R) = CN[C@@H](C[C@@H](C)CO)C(=O)O; Phe(βR-OMe) = CO[C@H](c1ccccc1)[C@H](N)C(=O)O; Trp(1-Me) = Cn1cc(C[C@H](N)C(=O)O)c2ccccc21; NMeL = CN[C@@H](CC(C)C)C(=O)O; Pra = C#CC[C@H](N)C(=O)O
observed-property: MIC (µg/ml) Mycobacterium intracellulare (µg/mL)
API: value field is a number in µg/mL; no unit string.

Record excerpt, results attached:
compound | measured-on | unit-of-measure | MIC (µg/ml) Mycobacterium intracellulare
C#CCn1cc(C[C@@H]2NC(=O)[C@H](C(C)C)NC(=O)[C@H](CC(C)C)N(C)C(=O)[C@H](C(C)C)NC(=O)[C@H]([C@H](OC)c3ccccc3)NC(=O)[C@H](C)NC(=O)[C@H](C[C@@H](C)CO)N(C)C2=O)c2ccccc21 [Compound 5] (cyclo(A[Phe(βR-OMe)]V[NMeL]V[X1][NMeLeu(5-OH,4R)])) | Mycobacterium intracellulare | µg/mL | 5.88
COc1c(N2C[C@@H]3CCCN[C@@H]3C2)c(F)cc2c(=O)c(C(=O)O)cn(C3CC3)c12 [Moxifloxacin, reference compound] | Mycobacterium intracellulare | µg/mL | 0.50
NCC[C@H](O)C(=O)N[C@@H]1C[C@H](N)[C@@H](O[C@H]2O[C@H](CN)[C@@H](O)[C@H](O)[C@H]2O)[C@H](O)[C@H]1O[C@H]1O[C@H](CO)[C@@H](O)[C@H](N)[C@H]1O [Amikacin, reference compound] | Mycobacterium intracellulare | µg/mL | 0.50
CC[C@H]1OC(=O)[C@H](C)[C@@H](O[C@H]2C[C@@](C)(OC)[C@@H](O)[C@H](C)O2)[C@H](C)[C@@H](O[C@@H]2O[C@H](C)C[C@H](N(C)C)[C@H]2O)[C@](C)(OC)C[C@@H](C)C(=O)[C@H](C)[C@@H](O)[C@]1(C)O [Clarithromycin, reference compound] | Mycobacterium intracellulare | µg/mL | 0.13

# evaluate next
**Query** Hello, I am looking for reported MIC (µg/ml) Mycobacterium intracellulare with Mycobacterium intracellulare for C#CC[C@@H]1NC(=O)[C@H](CC(C)C)N(C)C(=O)[C@H](C(C)C)NC(=O)[C@H]([C@H](OC)c2ccccc2)NC(=O)[C@H](C)NC(=O)[C@H](C[C@@H](C)CO)N(C)C(=O)[C@H](Cc2cn(C)c3ccccc23)NC1=O [Compound 10] (cyclo(A[Phe(βR-OMe)]V[NMeL][Pra][Trp(1-Me)][NMeLeu(5-OH,4R)])) . Could you help?
**Result** 11.41

---

Catalogue of MIC values
System: Msm 700084
Assay: microbe, parasite or virus in culture
Type: cell-based
Details: Mycolicibacterium smegmatis, 700084; read-out: MIC Msm 700084
Where a SMILES comes first, the peptide text is derived from it. [ ]: non-standard residue; d: D form. NMeLeu(5-OH,4R) = CN[C@@H](C[C@@H](C)CO)C(=O)O; Phe(βR-OMe) = CO[C@H](c1ccccc1)[C@H](N)C(=O)O; Trp(1-Me) = Cn1cc(C[C@H](N)C(=O)O)c2ccccc21; NMeL = CN[C@@H](CC(C)C)C(=O)O
API: value field is a number in µM; no unit string.

compound | MIC, µM
COC(c1ccccc1)C1NC(=O)C(C)NC(=O)C(CC(C)CO)N(C)C(=O)C(Cc2cn(Cc3cn(CCOCCOCCOCCOCCn4cc(Cn5cc(CC6NC(=O)C(C(C)C)NC(=O)C(CC(C)C)N(C)C(=O)C(C(C)C)NC(=O)C(C(OC)c7ccccc7)NC(=O)C(C)NC(=O)C(CC(C)CO)N(C)C6=O)c6ccccc65)nn4)nn3)c3ccccc23)NC(=O)C(C(C)C)NC(=O)C(CC(C)C)N(C)C(=O)C(C(C)C)NC1=O (stereo not drawn) [Compound 8] | 8.3

# evaluate next
**Query** Hello, I am looking for reported MIC with Msm 700084 for CO[C@H](c1ccccc1)[C@@H]1NC(=O)[C@H](C)NC(=O)[C@H](C[C@@H](C)CO)N(C)C(=O)[C@H](Cc2cn(C)c3ccccc23)NC(=O)[C@H](CCC(=O)N(C)C)NC(=O)[C@H](CC(C)C)N(C)C(=O)[C@H](C(C)C)NC1=O [SI-74] (cyclo(A[Phe(βR-OMe)]V[NMeL]E(NMe2)[Trp(1-Me)][NMeLeu(5-OH,4R)])) . Could you help?
**Result** 9.4

---

Assay: Microsomal stability, human
Assay type: in vitro ADME
Details: Human
*1 amine or outer side, *2 acyl side, *3 side chain or, on linkers, in order; H or OH if unused. Where a SMILES comes first, the peptide text is derived from it. [ ]: non-standard residue; d: D form. X2 = C#CCn1cc(C[C@@H](C(=O)[*:2])N(C)[*:1])c2ccccc21; NMeTrp(1-Me) = CN[C@@H](Cc1cn(C)c2ccccc12)C(=O)O; X1 = C#CCn1cc(C[C@H](N[*:1])C(=O)[*:2])c2ccccc21; X4 = C=CCO[C@H](c1ccccc1)[C@H](N[*:1])C(=O)[*:2]; NMeLeu(5-OH,4R) = CN[C@@H](C[C@@H](C)CO)C(=O)O; Phe(βR-OMe) = CO[C@H](c1ccccc1)[C@H](N)C(=O)O; Trp(1-Me) = Cn1cc(C[C@H](N)C(=O)O)c2ccccc21; NMeL = CN[C@@H](CC(C)C)C(=O)O
Catalogue of Microsomal Stability Human QH values

Record excerpt, results attached:
molecule | Microsomal Stability Human QH
C=CCO[C@H](c1ccccc1)[C@@H]1NC(=O)[C@H](C)NC(=O)[C@H](C[C@@H](C)CO)N(C)C(=O)[C@H](Cc2cn(C)c3ccccc23)NC(=O)[C@H](C(C)C)NC(=O)[C@H](CC(C)C)N(C)C(=O)[C@H](C(C)C)NC1=O [Compound 14] (cyclo(A[X4]V[NMeL]V[Trp(1-Me)][NMeLeu(5-OH,4R)])) | >88.4 >88.4%
C#CCn1cc(C[C@H]2C(=O)N(C)[C@@H](C[C@@H](C)CO)C(=O)N[C@@H](C)C(=O)N[C@@H]([C@H](OC)c3ccccc3)C(=O)N[C@@H](C(C)C)C(=O)N(C)[C@@H](CC(C)C)C(=O)N[C@@H](C(C)C)C(=O)N2C)c2ccccc21 [Compound 26] (cyclo(A[Phe(βR-OMe)]V[NMeL]V[X2][NMeLeu(5-OH,4R)])) | >88.400%

**Query** Bench note: what Microsomal Stability Human QH did `CO[C@H](c1ccccc1)[C@@H]1NC(=O)[C@H](C)NC(=O)[C@H](C[C@@H](C)CO)N(C)C(=O)[C@H](Cc2cn(Cc3cn(CCOCCn4cc(Cn5cc(C[C@@H]6NC(=O)[C@H](C(C)C)NC(=O)[C@H](CC(C)C)N(C)C(=O)[C@H](C(C)C)NC(=O)[C@H]([C@H](OC)c7ccccc7)NC(=O)[C@H](C)NC(=O)[C@H](C[C@@H](C)CO)N(C)C6=O)c6ccccc65)nn4)nn3)c3ccccc23)NC(=O)[C@H](C(C)C)NC(=O)[C@H](CC(C)C)N(C)C(=O)[C@H](C(C)C)NC1=O` show?
**Result** 69.600%

**Query** Bench note: what Microsomal Stability Human QH did CO[C@H](c1ccccc1)[C@@H]1NC(=O)[C@H](C)NC(=O)[C@H](C[C@@H](C)CO)N(C)C(=O)[C@H](Cc2cn(C)c3ccccc23)N(C)C(=O)[C@H](CCC(=O)N(C)C)NC(=O)[C@H](CC(C)C)N(C)C(=O)[C@H](C(C)C)NC1=O [SI-76] (cyclo(A[Phe(βR-OMe)]V[NMeL]E(NMe2)[NMeTrp(1-Me)][NMeLeu(5-OH,4R)])) show?
**Result** >88.400%

**Query** Bench note: what Microsomal Stability Human QH did C#CCn1cc(C[C@@H]2NC(=O)[C@H](C(C)C)NC(=O)[C@H](CC(C)C)N(C)C(=O)[C@H](C(C)C)NC(=O)[C@H](Cc3ccccc3)NC(=O)[C@H](C)NC(=O)[C@H](C[C@@H](C)CO)N(C)C2=O)c2ccccc21 [SI-72] (cyclo(AFV[NMeL]V[X1][NMeLeu(5-OH,4R)])) show?
**Result** >88.400%

**Query** Bench note: what Microsomal Stability Human QH did COC(c1ccc(OCc2cn(CCOCCOCCOCCOCCn3cc(COc4ccc(C(OC)C5NC(=O)C(C)NC(=O)C(CC(C)CO)N(C)C(=O)C(Cc6cn(C)c7ccccc67)NC(=O)C(C(C)C)NC(=O)C(CC(C)C)N(C)C(=O)C(C(C)C)NC5=O)cc4)nn3)nn2)cc1)C1NC(=O)C(C)NC(=O)C(CC(C)CO)N(C)C(=O)C(Cc2cn(C)c3ccccc23)NC(=O)C(C(C)C)NC(=O)C(CC(C)C)N(C)C(=O)C(C(C)C)NC1=O (stereo not drawn) show?
**Result** 39.3%
